- METHOD DESCRIPTION: Rapid solvent solubility screen
- Type: physicochemical
- TEST SETTINGS: heptane, 40 °C, organic solvent or mixture, thermodynamic from solid
METRIC: solubility

Notebook: CNC(=O)c1cc2ccc(N3CCCN(C)CC3)nc2n2c1nc1ccccc12 , solubility read as < 10000 µg/mL

* * *

- METHOD DESCRIPTION: Rapid solvent solubility screen
- Type: physicochemical
- TEST SETTINGS: majority of the thirteen solvents assessed, 40 °C, organic solvent or mixture, thermodynamic from solid; majority of solvents assessed
METRIC: solubility

Notebook: CNC(=O)c1cc2ccc(N3CCCN(C)CC3)nc2n2c1nc1ccccc12 , solubility read as < 10000 µg/mL

* * *

- METHOD DESCRIPTION: Rapid solvent solubility screen
- Format: physicochemical
- TEST SETTINGS: dimethylformamide, 40 °C, organic solvent or mixture, thermodynamic from solid
METRIC: solubility

Notebook: CNC(=O)c1cc2ccc(N3CCCN(C)CC3)nc2n2c1nc1ccccc12 , solubility read as < 10000 µg/mL

* * *

- METHOD DESCRIPTION: Rapid solvent solubility screen
- Format: physicochemical
- TEST SETTINGS: toluene, 40 °C, organic solvent or mixture, thermodynamic from solid
- Protocol: Thirteen solvents were chosen for a rapid solvent solubility screen (See, Table 1). 10 mg of multiphasic Compound (I) prepared according to Example 1 was placed in each of 13 vials and 5 volume aliquots of the appropriate solvent systems were added to each vial. Between each addition, the mixture was checked for dissolution and if no dissolution was apparent, the mixture was heated to 40° C. and checked again. […]
METRIC: solubility

Notebook: CNC(=O)c1cc2ccc(N3CCCN(C)CC3)nc2n2c1nc1ccccc12 , solubility read as < 10000 µg/mL

* * *

- METHOD DESCRIPTION: Rapid solvent solubility screen
- Type: physicochemical
- TEST SETTINGS: water, 40 °C, thermodynamic from solid
METRIC: solubility

Notebook: CNC(=O)c1cc2ccc(N3CCCN(C)CC3)nc2n2c1nc1ccccc12 [Compound (I)] , solubility read as < 10000 µg/mL

* * *

- METHOD DESCRIPTION: Rapid solvent solubility screen
- Assay type: physicochemical
- TEST SETTINGS: methanol, organic solvent or mixture, thermodynamic from solid
METRIC: solubility (mg/mL)
Write the value in mg/mL as a bare number.

Notebook: CNC(=O)c1cc2ccc(N3CCCN(C)CC3)nc2n2c1nc1ccccc12 , solubility read as 12.5

* * *

- METHOD DESCRIPTION: Rapid solvent solubility screen
- Type: physicochemical
- TEST SETTINGS: ethyl acetate, 40 °C, organic solvent or mixture, thermodynamic from solid
METRIC: solubility

Notebook: CNC(=O)c1cc2ccc(N3CCCN(C)CC3)nc2n2c1nc1ccccc12 , solubility read as < 10000 µg/mL

* * *

- METHOD DESCRIPTION: 7 day stability test of crystal forms (PXRD post storage)
- Format: physicochemical
- TEST SETTINGS: 7-day storage, 40° C./75% RH (closed vial)
METRIC: Form stability after storage (PXRD)

| COMPOUND | REPORTED |
| --- | --- |
| CNC(=O)c1cc2ccc(N3CCCN(C)CC3)nc2n2c1nc1ccccc12 [Form 3] | transitions to Form 1 |
| CNC(=O)c1cc2ccc(N3CCCN(C)CC3)nc2n2c1nc1ccccc12 [Form 2] | transitions to Form 1 |
| CNC(=O)c1cc2ccc(N3CCCN(C)CC3)nc2n2c1nc1ccccc12 [Form 4] | transitions to Form 1 |
